# Test system: SF-295
# protocol.description: NCI tumour cell line growth inhibition, 48 h
The source made the active and inactive calls. Cut-off read from the data, not from the text of the source: active = GI50 up to about 1.1 µM and inactive = higher. Peptide text beside a SMILES is read from it.
Assignment: determine reported GI50 for the given compounds.

Incoming: What does the record list as GI50 for O=C1C2C3C=C4c5ccccc5N(c5ccccc5)C4([C@@H]2C(=O)N1c1ccc(F)cc1)[C@H]1C(=O)N(c2ccc(F)cc2)C(=O)[C@@H]31 (some centres undefined) ?
Outgoing: > 100 µM (inactive)

Incoming: What does the record list as GI50 for Fc1ccc2c(c1)nc1n2C(c2c(Cl)cccc2Cl)SC1 (centres undefined) ?
Outgoing: 13.7 µM (inactive)

Incoming: What does the record list as GI50 for Cc1ccc(S(=O)(=O)N/N=C(/CC(=O)c2c(C)[n+]([O-])c3ccccc3[n+]2[O-])C(=O)Nc2ccccc2C)cc1 ?
Outgoing: > 100 µM (inactive)

Incoming: What does the record list as GI50 for CC(=O)NC(CS)C(=O)NC(CO)C(=O)NC(CO)C(=O)NC(Cc1c[nH]c2ccccc12)C(=O)N1CCCC1C(=O)NC(CO)C(=O)NC(Cc1c[nH]c2ccccc12)C(=O)NC(Cc1c[nH]cn1)C(=O)NC(CO)C(=O)NC(Cc1c[nH]c2ccccc12)C(=O)NCC(=O)NCC(=O)NC(C)C(=O)NC(CCC(N)=O)C(=O)NC(CCCCN)C(=O)NC(C)C(=O)NC(CCCNC(=N)N)C(=O)NC(CCCCN)C(N)=O (centres undefined) (Ac-CSSWPSWHSWGGAQKARK-NH2; configuration not given here) ?
Outgoing: > 50 µM (inactive)
